test.method.notes: MLM stability assay
Type: in vitro ADME, mouse
experimental.setup: percentage of compound remaining after 30 min; 10 μM
measurement.name: MLM stability (%)

Please review the following examples before continuing.
structure | units.label | MLM stability (%)
NCc1ccc(S(=O)(=O)c2ccc3ccccc3c2)s1 | % | 100
Cl.Cl.Cn1cc(-c2cc(S(=O)(=O)c3ccc(CN)s3)ccc2S(C)(=O)=O)cn1 | % | 90
CC(C)(C)Oc1cc(S(C)(=O)=O)cc(S(=O)(=O)c2ccc(CN)s2)c1 | % | 67
CS(=O)(=O)c1ccc(S(=O)(=O)c2ccc(CN)s2)cc1 | % | 67

1: CS(=O)(=O)c1ccc(S(=O)(=O)c2ccc(CN)s2)cc1-c1ccccc1
2: CC(C)(C)c1cc(S(C)(=O)=O)cc(S(=O)(=O)c2ccc(CN)s2)c1
Task: Which gives the smaller MLM stability (%) number: 1 or 2 ? Lab log: write the label of the selected item as the result.
Result: 1

---

Listed molecules paired with reported IC50
target.entity: LOX (Sus scrofa, UniProt P45845)
Construct: LOX enzyme was extracted from pig skin by the method of Shackleton and Hulmes; from tissue; host or cells: pig skin
Sequence (P45845 whole entry): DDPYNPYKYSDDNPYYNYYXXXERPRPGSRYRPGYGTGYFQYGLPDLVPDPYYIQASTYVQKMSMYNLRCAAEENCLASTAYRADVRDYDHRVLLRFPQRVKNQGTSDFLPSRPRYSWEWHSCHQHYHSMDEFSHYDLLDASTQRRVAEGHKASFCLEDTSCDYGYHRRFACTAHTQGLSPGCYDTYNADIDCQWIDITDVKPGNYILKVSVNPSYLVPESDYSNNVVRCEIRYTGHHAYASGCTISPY
test.method.notes: LOX enzyme activity assay (HRP-coupled fluorescent, cadaverine substrate);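 further: LOX isolated from porcine skin, nine-point dilution series starting at 100 µM, 20 min preincubation with enzyme, BAPN serving as positive control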
Type: biochemical, pig
experimental.setup: n ≥ 2; n = 2: individual values; n > 2: geometric mean [95% CI]; 20 min preincubation; read-out: LOX IC50

Consider the following illustrative entries.
molecule | measurement.name | measured.value
CC(N)c1ccc(S(=O)(=O)c2ccccc2)s1 (stereo not drawn) | IC50 | > 100 µM
O=S(=O)(c1ccc2ccccc2c1)c1ccc(/C=N/O)s1 | IC50 | > 100 µM

According to the records, this molecule N#Cc1ccc(S(=O)(=O)c2ccccc2)s1 displays IC50 of > 100 µM

---

test.method.notes: MLM stability assay
Type: in vitro ADME, mouse
experimental.setup: percentage of compound remaining after 30 min; 10 μM
measurement.name: MLM stability (%)

structure | units.label | measured.value
NCc1ccc(S(=O)(=O)c2cccc(S(=O)(=O)N3CCCC3)c2)s1 | % | 59
Cc1ccc(-c2cc(S(=O)(=O)c3ccc(CN)s3)ccc2S(C)(=O)=O)cc1.Cl | % | 95

P: NCc1ccc(S(=O)(=O)c2cccc(S(=O)(=O)N3CCC[C@H]3CO)c2)s1
Q: CC(=O)NCCS(=O)(=O)c1ccc(S(=O)(=O)c2ccc(CN)s2)cc1.Cl
R: CS(=O)(=O)N1CCCN(S(=O)(=O)c2ccc(CN)s2)CC1
Task: Sort low-to-high on MLM stability (%), please. Give me the labels in the order the question wants.
Result: R, P, Q
